The reported measurements were obtained from patent US5001160A.

A collection of compounds and their measured log10 Kb
MEASUREMENT TARGET: postsynaptic muscarinic cholinergic receptors (bladder detrusor muscle) (Cavia porcellus, UniProt H0W1Z3)
Sequence (H0W1Z3 1-590): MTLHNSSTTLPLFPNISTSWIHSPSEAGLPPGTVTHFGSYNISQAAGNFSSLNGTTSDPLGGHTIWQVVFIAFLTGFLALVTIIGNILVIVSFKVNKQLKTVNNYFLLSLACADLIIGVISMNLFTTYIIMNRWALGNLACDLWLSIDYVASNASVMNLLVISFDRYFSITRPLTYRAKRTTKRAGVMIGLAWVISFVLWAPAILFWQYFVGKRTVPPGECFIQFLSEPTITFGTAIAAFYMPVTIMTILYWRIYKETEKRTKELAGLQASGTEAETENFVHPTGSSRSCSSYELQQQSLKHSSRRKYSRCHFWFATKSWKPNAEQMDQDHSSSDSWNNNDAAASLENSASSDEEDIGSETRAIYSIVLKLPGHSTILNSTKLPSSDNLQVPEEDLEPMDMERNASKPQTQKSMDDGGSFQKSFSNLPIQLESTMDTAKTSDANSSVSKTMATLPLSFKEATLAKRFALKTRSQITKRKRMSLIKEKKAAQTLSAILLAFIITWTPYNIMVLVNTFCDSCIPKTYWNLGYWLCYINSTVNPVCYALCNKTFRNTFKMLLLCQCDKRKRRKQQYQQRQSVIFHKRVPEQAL
TEST PROTOCOL: cell-based
Set-up: species or system guinea pig
Structures can show the parent of a compound that is named as a salt.
MEASURED METRIC: log10 Kb (log10 of the value in nM)

>>> df
                                   compound  measured_metric  quantitative_readout
0  O=C(CN1CCN(CC(=O)C(O)(c2ccccc2)C2CCC2)CC1)N1CCCC1 (stereo not shown) [Dihydrochloride]         log10 Kb                  2.32
1  C=CCN1CCN(CC(=O)C(O)(c2ccccc2)C2CCCCC2)CC1 (stereo not shown) [Dihydrochloride]         log10 Kb                  1.41
2  O=C(CN1CCN(CCO)CC1)C(O)(c1ccccc1)C1CCC1 (stereo not shown) [Dihydrochloride]         log10 Kb                  2.30
3  CN1CCN(CC(=O)C(O)(c2ccccc2)C2CCCCC2)CC1 (stereo not shown)         log10 Kb                  1.41
4  O=C(CN1CCNCC1)C(O)(c1ccccc1)C1CCC1 (stereo not shown) [Dihydrochloride]         log10 Kb                  1.93
5  CC(C)=CCN1CCN(CC(=O)C(O)(c2ccccc2)C2CCC2)CC1 (stereo not shown) [Dihydrochloride]         log10 Kb                  1.28
6  C=C(C)CN1CCN(CC(=O)C(O)(c2ccccc2)C2CCC2)CC1 (stereo not shown) [Dihydrochloride]         log10 Kb                  2.00
7  CN1CCN(CC(=O)C(O)(c2ccccc2)C2CCC2)CC1 (stereo not shown) [Dihydrochloride]         log10 Kb                  1.40
8  O=C(CN1CCN(Cc2ccc([N+](=O)[O-])cc2)CC1)C(O)(c1ccccc1)C1CCC1 (stereo not shown) [Dihydrochloride]         log10 Kb                  1.92
